Assay: NCI Yeast Anticancer Drug Screen. Data for the mec2-1 strain (AID 157)
Conditions: S. cerevisiae mec2-1 strain, at 50.0 µM (retest, dose inferred, filed as 5.0)
This is part of a sample that, as a whole, favours compounds with a hit. Of some 79,000 tested, about 15% had one in any assay. Calls of active or inactive are those of the source. Rule as the data show it: active = growth inhibition above about 70%; inactive = the rest. Where a SMILES comes first, the peptide text is derived from it. The star is where a group is joined. Fmoc = O=C(OCC1c2ccccc2-c2ccccc21)*; Boc = CC(C)(C)OC(=O)*
// classify into True (active), False (inactive)

For `O=C(CN1CCCCC1)CC(O)(C(F)(F)F)C(F)(F)F` , what call appears in the results of this test? False

For CC(C)(C)OC(=O)NCCCCC(NC(=O)OCC1c2ccccc2-c2ccccc21)C(=O)N1CCCC1C(=O)NCC(N)=O (stereo not drawn) (Fmoc-Lys(Boc)-Pro-Gly-NH2; configuration not given here) , what call appears in the results of this test? True

For `Nn1c2ccccc2c2ccccc21` , what call appears in the results of this test? False

For `C/C(=N\NC(=S)N1CCN(c2cnccn2)CC1)c1ccccn1` , what call appears in the results of this test? True

###

Assay: NCI Yeast Anticancer Drug Screen. Data for the sgs1 mgt1 strain (AID 161);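 also: 0% = growth of cultures given vehicle only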
Conditions: S. cerevisiae sgs1 mgt1 strain, at 50.0 µM, stronger effect = higher value
This is part of a sample that, as a whole, favours compounds with a hit. Of some 79,000 tested, about 15% had one in any assay. The source made the active and inactive calls. Cut-off read from the data, not from the text of the source: active = growth inhibition above about 70%; inactive = the rest.
Parameter: growth inhibition

Which value of growth inhibition has been reported for `O/N=C(/CCc1ccccc1Cl)c1ccccc1` in the records? 96.3% (active)

Which value of growth inhibition has been reported for `CCN(CC)CCOc1ccc(-c2cc(-c3ccccc3)nc(N)n2)cc1` in the records? 85.2% (active)

Which value of growth inhibition has been reported for `O=C(O)c1ccc(C(=O)c2ccccc2C(=O)O)cc1` in the records? 99.4% (active)

Which value of growth inhibition has been reported for `CN(C)CC[N+](C)(C)Cc1ccc(C[N+](C)(C)CC[N+](C)(C)Cc2ccc(CCl)cc2)cc1` in the records? 97.9% (active)

Which value of growth inhibition has been reported for NCCCC(=O)NC(Cc1cnc[nH]1)C(=O)O (centres undefined) in the records? 11.8% (inactive)

Which value of growth inhibition has been reported for `O=c1c2ccccc2sc2c([N+](=O)[O-])ccc(NCCNCCO)c12` in the records? 86.7% (active)

Which value of growth inhibition has been reported for CCCCN(CCCC)CCCC(O)c1c2ccc(Cl)cc2nc2ccc(OC)cc12 (centres undefined) in the records? 18.9% (inactive)

Which value of growth inhibition has been reported for `Cc1nc2ccc3c(ccc4nc(C)c(N=Nc5ccc(C(=N)N)cc5)c(O)c43)c2c(O)c1N=Nc1ccc(C(=N)N)cc1` in the records? 85.2% (active)

Which value of growth inhibition has been reported for `S=c1[nH]nc(Nc2ccccc2Cl)s1` in the records? 79.8% (active)

Which value of growth inhibition has been reported for `O=C(Nc1ccc(Cl)c(Cl)c1)Nc1cc(Cl)ccc1Oc1ccc(Cl)cc1S(=O)(=O)O` in the records? 93.6% (active)

Which value of growth inhibition has been reported for `C=CC(=O)N1C/C(=C\c2ccc(F)cc2)C(=O)/C(=C/c2ccc(F)cc2)C1` in the records? 90.2% (active)

Which value of growth inhibition has been reported for CC1C[N+](C)(C)C(C)C(=O)C1(c1ccccc1)c1ccccc1 (centres undefined) in the records? -10.3% (inactive)

Which value of growth inhibition has been reported for `C/C(=N/NC(=S)Nc1ccc(C)cc1)c1ccccn1` in the records? 88.5% (active)

Which value of growth inhibition has been reported for `Cc1cc(OCCl)ccc1[N+](=O)[O-]` in the records? 39.1% (inactive)

Which value of growth inhibition has been reported for `COc1cc2cnc(-c3ccccc3)cc2cc1OC` in the records? 13.9% (inactive)

Which value of growth inhibition has been reported for `O=C(Nc1ccccc1[N+](=O)[O-])/C(=N/Nc1cccc(Cl)c1)c1c(O)c2ccccc2oc1=O` in the records? 89.5% (active)

Which value of growth inhibition has been reported for `COc1cc(NCCCCCNC2CCCCC2)c2ncccc2c1` in the records? 74.1% (active)

Which value of growth inhibition has been reported for `NC(N)=NS(=O)(=O)c1ccc(N=Cc2c3ccccc3nc3cc(Cl)ccc23)cc1` in the records? 96.2% (active)

Which value of growth inhibition has been reported for CC(=O)C1C(=O)C=C(C)OC1=O (centres undefined) in the records? -0.75% (inactive)

###

Assay: NCI Yeast Anticancer Drug Screen. Data for the cln2 rad14 strain (AID 165);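 also: 0% = growth equal to vehicle treated cultures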
Settings: S. cerevisiae cln2 rad14 strain, at 50.0 µM
About 79,000 compounds went through this panel and 15% of them were active in at least one assay; those are over-represented in the sample as a whole. The source made the active and inactive calls. No stated cut-off is given here; in the data, active means growth inhibition above about 70%; inactive means the rest.
// classify into True = active, False = inactive

For CN1c2ccccc2C(c2ccccc2)c2ccc(Nc3ccccc3)cc21 (stereo not drawn) , what call appears in the results of this test? True

For `CCOc1ccccc1/C=N/Nc1nnc(N/N=C/c2ccccc2OCC)c2ccccc12` , what call appears in the results of this test? False

For `CCCCCCCCNS(=O)(=O)c1ccc(N)cc1` , what call appears in the results of this test? False

For `O=C(O)CCCCCCCCC(=O)CCl` , what call appears in the results of this test? True

For `O=C1C=CC(=O)c2c(O)c(N3CCC[C@@H]3CO)c(Cl)c(O)c21` , what call appears in the results of this test? False

For CC(C)c1ccc2c(c1)CCC1C(C)(C(=O)O)CCCC21C (stereo not drawn) , what call appears in the results of this test? True

For `CCCCCCCCCCCC[n+]1ccc(C)cc1` , what call appears in the results of this test? True

For `O=C1c2ccc3c4ccccc4n(Cc4ccccc4)c3c2C(=O)N1c1ccccc1` , what call appears in the results of this test? True

For `COc1ccc2c(c1)n([O-])c1cc(C#N)ccc1[n+]2=O` , what call appears in the results of this test? False

For `CN1CCN=C1c1ccc(NC(=O)Nc2ccc(NC(=O)Nc3ccc(C4=NCCN4C)cc3)cc2)cc1` , what call appears in the results of this test? False

For CC(C)c1cc2c(cc1O)C(O)C1(O)CCCC(C)(C)[C@H]1CC2 (stereo partly drawn) , what call appears in the results of this test? True

For `CCN(CC)C(=S)N/N=C/c1cc(OC)ccc1O` , what call appears in the results of this test? False

For `Cc1ccc2c(c1)nc1n2C(N)=Nc2ccccc2S1` , what call appears in the results of this test? False

###

Assay: NCI Yeast Anticancer Drug Screen. Data for the sgs1 mgt1 strain (AID 161);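 also: 0% = growth of cultures given vehicle only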
Settings: S. cerevisiae sgs1 mgt1 strain, at 50.0 µM
About 79,000 compounds went through this panel and 15% of them were active in at least one assay; those are over-represented in the sample as a whole. Active and inactive are the calls of the source. Rule as the data show it: active = growth inhibition above about 70%; inactive = the rest.
// classify into 1 (active), 0 (inactive)

For `Cc1ccc(/C=C/C(=O)/C=C/c2ccc(C)o2)o1` , what call appears in the results of this test? 1

For COc1ccccc1C1c2cc3c(cc2OC(N2CCOCC2)C1C)OCO3 (stereo not drawn) , what call appears in the results of this test? 0

For `COc1ccc2nccc(C(=O)CBr)c2c1` , what call appears in the results of this test? 1

For COc1ccc2c(c1)CN1C(CCC3c4ccccc4NC31)C2 (stereo not drawn) , what call appears in the results of this test? 1

For `COc1ccc2c(c1)Cc1cc(NC(=O)N(CCCl)N=O)ccc1-2` , what call appears in the results of this test? 1

For COc1ccc(C(=O)C2C(=O)C(=O)OC2C2OC(=O)C(=O)C2C(=O)c2ccc(OC)cc2)cc1 (stereo not drawn) , what call appears in the results of this test? 0

For `COc1ccc(/C=C2\SC(=S)N(/C=C(/C#N)C(=O)c3ccc4ccccc4c3)C2=O)cc1OC` , what call appears in the results of this test? 1

For `C/C(O)=c1\cc(C#N)c(=C(C#N)C#N)nc1C` , what call appears in the results of this test? 0

For `CCc1ccc(C)nc1` , what call appears in the results of this test? 0

For `O=C1NC(c2ccccc2)(c2ccccc2)C(=O)N1SC(Cl)(Cl)Cl` , what call appears in the results of this test? 1

For `NC(=S)NNc1c([N+](=O)[O-])cnn(-c2ccccc2)c1=O` , what call appears in the results of this test? 0

For CC(=O)OC1C2C3C(C=CC2[C@H]1OC(C)=O)C1C3C=CC2C1C(OC(C)=O)[C@@H]2OC(C)=O (stereo partly drawn) , what call appears in the results of this test? 0

For `CCN(CC)C(=O)N1CCN(c2cccc(Cl)c2)CC1` , what call appears in the results of this test? 1
